# system.name: human plasma kallikrein (Homo sapiens, UniProt P03952)
# Sequence (P03952 391-638 limits assumed): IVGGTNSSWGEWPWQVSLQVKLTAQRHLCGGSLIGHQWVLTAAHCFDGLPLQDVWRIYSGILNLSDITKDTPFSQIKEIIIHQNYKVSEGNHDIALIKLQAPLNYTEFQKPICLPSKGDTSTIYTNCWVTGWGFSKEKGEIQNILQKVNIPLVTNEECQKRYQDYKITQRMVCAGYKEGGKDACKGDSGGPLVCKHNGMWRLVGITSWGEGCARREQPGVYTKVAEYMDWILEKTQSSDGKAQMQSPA
# Sequence (P03952 20-390 partner limits assumed): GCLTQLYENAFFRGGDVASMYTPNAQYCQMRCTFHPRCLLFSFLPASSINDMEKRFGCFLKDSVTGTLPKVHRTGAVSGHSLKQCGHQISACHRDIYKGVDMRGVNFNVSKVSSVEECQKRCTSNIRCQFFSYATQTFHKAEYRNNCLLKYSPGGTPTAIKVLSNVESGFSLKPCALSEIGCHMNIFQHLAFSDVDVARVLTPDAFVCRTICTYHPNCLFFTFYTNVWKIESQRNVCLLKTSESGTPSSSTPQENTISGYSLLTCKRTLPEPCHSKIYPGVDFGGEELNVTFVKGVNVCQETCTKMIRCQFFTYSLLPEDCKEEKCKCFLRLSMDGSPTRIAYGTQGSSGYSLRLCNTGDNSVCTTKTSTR
# assay.protocol: Kallikrein inhibition FLINT assay with quenched AMC peptide substrate Z-Gly-Pro-Arg-AMC (end point EP or kinetic KIN reads)
# Type: biochemical
# conditions.used: kinetic reads at 5 min intervals over 30 min; read-out: Kallikrein (KIN) IC50
property.label: IC50 (nM)

Below: 8 molecules and their reported IC50.
>>> observed("COC(=O)Nc1ccc(-c2cnn(C(Cc3cccc(OC)c3)c3ccc(-c4c(-n5cnnn5)ccc(Cl)c4F)c[n+]3[O-])c2)cc1 (single isomer, unassigned) [Example P206]")
137
>>> observed("NC(=O)c1ccn(CC(c2ccc(-c3c(-n4cnnn4)ccc(Cl)c3F)c[n+]2[O-])n2cc(-c3ccnc(C(F)(F)F)c3)cn2)n1 (single isomer, unassigned)")
9.4
>>> observed("[O-][n+]1cc(-c2c(-n3cnnn3)ccc(Cl)c2F)ccc1C(Cn1cc(-c2ccccn2)cn1)n1cc(-c2ccccn2)cn1 (single isomer, unassigned) [Example P515]")
144
>>> observed("COC(=O)Nc1ccc(-c2cnn(C(CC3CCCCO3)c3ccc(-c4c(-n5cnnn5)ccc(Cl)c4F)c[n+]3[O-])c2)cc1 (single isomer, unassigned) [Example P127]")
70.1
>>> observed("Cn1cc(CC(c2ccc(-c3c(-n4cnnn4)ccc(Cl)c3F)c[n+]2[O-])n2cc(-c3ccnc(C#N)c3)cn2)cn1 (centres unmarked)")
17.4
>>> observed("CCCC(c1ccc(-c2c(-n3cnnn3)ccc(Cl)c2F)c[n+]1[O-])n1cc(-c2ccc(NC(=O)OC)cc2)cn1 (centres unmarked) [Example P156]")
86.7
>>> observed("CCC(c1ccc(-c2c(-n3cc(C(F)(F)F)nn3)ccc(Cl)c2F)c[n+]1[O-])n1cc(-c2ccc(C(N)=O)c(F)c2)cn1 (single isomer, unassigned)")
103
>>> observed("O=C(c1ccn(CC(c2ccc(-c3c(-n4cnnn4)ccc(Cl)c3F)c[n+]2[O-])n2cc(-c3cc[n+]([O-])cc3)cn2)n1)N1CCCCC1 (centres unmarked)")
4.3

a = [O-][n+]1cc(-c2c(-n3cnnn3)ccc(Cl)c2F)ccc1C(Cn1cc(F)cn1)n1cc(-c2ccnn2C(F)F)cn1 (single isomer, unassigned) [Example P644]
b = CN(CC(c1ccc(-c2c(-n3cnnn3)ccc(Cl)c2F)c[n+]1[O-])n1cc(-c2ccnc(C(F)(F)F)c2)cn1)C(=O)c1ccn(C)c(=O)c1 (single isomer, unassigned) [Example P434]
c = COCC[C@H](c1ccc(-c2c(-n3cnnn3)ccc(Cl)c2F)c[n+]1[O-])n1cc(-c2cnnn2C(F)F)cn1
Order these by IC50, descending, and give the full ranking. Respond with the label ranking, as requested. b, c, a
(b: 427 nM, c: 180 nM, a: 14.5 nM)

====

# system.name: human plasma kallikrein (Homo sapiens, UniProt P03952)
# assay.protocol: Kallikrein inhibition FLINT assay with quenched AMC peptide substrate Z-Gly-Pro-Arg-AMC (end point EP or kinetic KIN reads)
# Assay type: biochemical
# conditions.used: end point read at 30 min; read-out: Kallikrein (EP) IC50
property.label: IC50 (nM)

>>> observed("Nc1ccc(-c2cnn(C(CC3CC3)c3ccc(-c4c(-n5cnnn5)ccc(Cl)c4F)c[n+]3[O-])c2)cc1 (centres unmarked)")
166
>>> observed("CC(=O)Nc1ccc(-c2cnn(C(CC3CC3)c3ccc(-c4c(-n5cnnn5)ccc(Cl)c4F)c[n+]3[O-])c2)cc1 (centres unmarked)")
66.1
>>> observed("Nc1ccc(-c2cnn(C(CC3CC3)c3ccc(-c4c(-n5cnnn5)ccc(Cl)c4F)c[n+]3[O-])c2)c[n+]1[O-] (centres unmarked)")
749

P = CN1Cc2cc(-c3cnn(C(CC4CC4)c4ccc(-c5cc(Cl)ccc5-n5cnnn5)c[n+]4[O-])c3)ccc2C1=O (centres unmarked)
Q = Nc1ccc(-c2cnn(C(Cc3ccccc3)c3ccc(-c4cc(Cl)ccc4-n4cnnn4)c[n+]3[O-])c2)c(Cl)n1 (centres unmarked)
Which one would you say has the larger IC50 value: P , or Q ? Record your answer as the label of the chosen record. P

A = O=C(O)c1ccc(-c2cnn(C(CC3CC3)c3ccc(-c4cc(Cl)ccc4-n4cnnn4)c[n+]3[O-])c2)cc1 (centres unmarked) [Example P1]
B = O=C(O)c1cccc(-c2cnn(C(CC3CC3)c3c(F)cc(-c4cc(Cl)ccc4-n4cnnn4)c[n+]3[O-])c2)c1 (centres unmarked)
C = COC(=O)Nc1ccc(-c2cnn(C(Cc3ccccc3)c3ccc(-c4cc(Cl)ccc4-n4cnnn4)c[n+]3[O-])c2)cc1 (centres unmarked)
D = O=C(O)c1ccc(-c2cnn(C(Cc3ccc(F)cc3)c3ccc(-c4cc(Cl)ccc4OCC(F)(F)F)c[n+]3[O-])c2)cc1 (centres unmarked)
Put the items in order so that reported IC50 rises from first to last. Respond with the label ranking, as requested. C, B, A, D
(C: 25.8 nM, B: 81.4 nM, A: 124 nM, D: 674 nM)

P = Nc1ccc(-c2cnn(C(CC3CC3)c3ccc(-c4cc(Cl)ccc4-n4cnnn4)c[n+]3[O-])c2)c(Cl)n1 (centres unmarked) [Example P19]
Q = COCCC(c1ccc(-c2c(-n3cnnn3)ccc(Cl)c2F)c[n+]1[O-])n1cc(-c2ccc(NC(=O)OC)cc2)cn1 (racemic)
Which one would you say has the larger IC50 value: P , or Q ? Record your answer as the label of the chosen record. P
(P: 135 nM, Q: 56 nM)

====

# system.name: human plasma kallikrein (Homo sapiens)
# assay.protocol: Kallikrein inhibition FLINT assay with quenched AMC peptide substrate Z-Gly-Pro-Arg-AMC (end point EP or kinetic KIN reads)
# Format: biochemical
# conditions.used: kinetic reads at 5 min intervals over 30 min; read-out: Kallikrein (KIN) IC50
pIC50: −log10 of the molar value.
property.label: pIC50

Below: 3 compounds and their reported pIC50.
>>> observed("[O-][n+]1cc(-c2c(-n3cc(Cl)nn3)ccc(Cl)c2F)ccc1C(Cn1cccn1)n1cc(-c2cn(C(F)F)nn2)cn1 (single isomer, unassigned)")
6.42
>>> observed("Cn1nnc(F)c1-c1cnn(C(CCOC(F)F)c2ccc(-c3c(-c4cnco4)ccc(Cl)c3F)c[n+]2[O-])c1 (centres unmarked)")
6.62
>>> observed("COc1cc(C(CC2CC2)n2cc(-c3ncnn3C)cn2)[n+]([O-])cc1-c1cc(Cl)ccc1-n1cc(C(F)(F)F)nn1 (single isomer, unassigned)")
7.53

a = [2H]C([2H])(C[C@H](c1ccc(-c2c(-n3cc(C(F)(F)F)nn3)ccc(Cl)c2F)c[n+]1[O-])n1cc(-c2ncnn2C)cn1)OC(F)F [Example P834]
b = Nc1ccc(-c2cnn(C(Cn3cc(F)cn3)c3ccc(-c4c(C(F)F)ccc(Cl)c4F)c[n+]3[O-])c2)c(F)n1 (single isomer, unassigned) [Example Q26]
c = Cn1ccc(CC(c2ccc(-c3c(-n4cnnn4)ccc(Cl)c3F)c[n+]2[O-])n2cc(-c3ccnc(C#N)c3)cn2)n1 (centres unmarked)
d = [O-][n+]1cc(-c2c(-n3cnnn3)ccc(Cl)c2F)ccc1C(CC1CC1)n1cc(-c2ncns2)cn1 (centres unmarked)
e = COC(=O)Nc1ccc(-c2cnn(C(CC3CCC(C)CC3)c3ccc(-c4c(-n5cnnn5)ccc(Cl)c4F)c[n+]3[O-])c2)cc1 (centres unmarked)
Put the items in order so that reported pIC50 rises from first to last. Respond with the label ranking, as requested. d, b, e, a, c

1 = CCCC(c1ccc(-c2c(-n3cnnn3)ccc(Cl)c2F)c[n+]1[O-])n1cc(-c2ccc(NC(=O)OC)cc2)cn1 (single isomer, unassigned) [Example P158]
2 = [O-][n+]1cc(-c2c(-n3cnnn3)ccc(Cl)c2F)ccc1[C@@H](Cc1ccc(F)cc1)n1cc(-c2ccn(C(F)F)n2)cn1
Which one would you say has the larger pIC50 value: 1 , or 2 ? Record your answer as the label of the chosen record. 2
(2: 8.12, 1: 7.35)

1 = NC(=O)c1ccc(-c2cnn(C(Cc3ccn(C(F)F)n3)c3ccc(-c4c(-n5cc(C(F)(F)F)nn5)ccc(Cl)c4F)c[n+]3[O-])c2)cc1F (single isomer, unassigned) [Example P906]
2 = CCC(c1ccc(-c2c(-n3cnnn3)ccc(Cl)c2F)c[n+]1[O-])n1cc(-c2cc[n+]([O-])cc2)cn1 (single isomer, unassigned)
3 = [O-][n+]1cc(-c2c(-n3cnnn3)ccc(Cl)c2F)ccc1[C@@H](Cc1ccc(F)cc1)n1cc(-c2cn(C(F)F)nn2)cn1
4 = Cc1ncn(-c2cnn([C@H](CCOC(F)F)c3ccc(-c4c(-n5cc(C(F)(F)F)nn5)ccc(Cl)c4F)c[n+]3[O-])c2)n1
Put the items in order so that reported pIC50 rises from first to last. Respond with the label ranking, as requested. 4, 2, 3, 1
(4: 6.25, 2: 6.53, 3: 7.36, 1: 8.19)

1 = Cn1ncnc1-c1cnn(C(Cc2nnco2)c2ccc(-c3c(-n4cc(C(F)(F)F)nn4)ccc(Cl)c3F)c[n+]2[O-])c1 (centres unmarked)
2 = [O-][n+]1cc(-c2c(-n3cnnn3)ccc(Cl)c2F)ccc1C(Cn1cccn1)n1cc(-c2ccnc(C(F)(F)F)c2)cn1 (single isomer, unassigned) [Example P513]
3 = [O-][n+]1cc(-c2cc(Cl)ccc2-n2cnnn2)ccc1C(Cc1ccc(Cl)cc1)n1cc(-c2ccc(F)nc2)cn1 (centres unmarked)
4 = O=C1OCCN1CC(c1ccc(-c2c(-n3cnnn3)ccc(Cl)c2F)c[n+]1[O-])n1cc(-c2ccnc(C(F)(F)F)c2)cn1 (single isomer, unassigned)
5 = [O-][n+]1cc(-c2c(-n3cnnn3)ccc(Cl)c2F)ccc1C(Cn1cc(F)cn1)n1cc(-c2ccnn2C(F)F)cn1 (centres unmarked) [Example P645]
Order these by pIC50, descending, and give the full ranking. Respond with the label ranking, as requested. 2, 4, 3, 1, 5

I = [O-][n+]1cc(F)c(-c2cnn(C(CC3CC3)c3ccc(-c4c(-n5cnnn5)ccc(Cl)c4F)c[n+]3[O-])c2)c(Cl)c1 (centres unmarked) [Example P518]
II = [O-][n+]1cc(-c2c(-n3cnnn3)ccc(Cl)c2F)ccc1[C@@H](CCOC(F)F)n1cc(-c2cnn(C(F)F)n2)cn1
Lower value of pIC50 belongs to which: I or II ? Record your answer as the label of the chosen record. I

I = O=C(O)c1cccc(-c2cnn(C(CC3CC3)c3ccc(-c4cc(Cl)ccc4-n4cnnn4)c[n+]3[O-])c2)c1 (centres unmarked)
II = CN(C)C(=O)c1ccn(CC(c2ccc(-c3c(-n4cnnn4)ccc(Cl)c3F)c[n+]2[O-])n2cc(-c3ccnc(C(F)(F)F)c3)cn2)n1 (single isomer, unassigned)
Which one would you say has the larger pIC50 value: I , or II ? Record your answer as the label of the chosen record. II
(II: 7.75, I: 6.27)
